Attribution: ChEMBL document CHEMBL3507680

assay: Human HepG2 cell viability assay in 384 well format; format: toxicity, cell-based; design: dose 125 nL, time 70.5 hour; concentration not given beside the values; conditions: HepG2 cells, read-out: Inhibition
readout_type: cytotoxicity at 70.5 h (%)
Enter your answer as a number in %; do not include the unit.

Cc1nc(CN2CCCC(NCCOc3cccc(C#N)c3)C2)no1 (stereo not given) | -2.71

Prompt: Return reported cytotoxicity at 70.5 h; argument: O=S1(=O)CCCN1Cc1coc(-c2ccc(C(F)(F)F)cc2)n1
Completion: 11

Prompt: Return reported cytotoxicity at 70.5 h; argument: O=C(C1CCC1)N1CCN(c2snc3ccccc23)CC1
Completion: 44.7

Prompt: Return reported cytotoxicity at 70.5 h; argument: CN(Cc1ccco1)C1CCC12CCN(C(=O)c1ccco1)CC2 (stereo not given)
Completion: -0.239

Prompt: Return reported cytotoxicity at 70.5 h; argument: CCOc1ccc(NC(=O)c2[nH]c(C)cc2C)cc1CO
Completion: 20.6

Prompt: Return reported cytotoxicity at 70.5 h; argument: CC(C)N1CCCCC1c1cc(CO)[nH]n1 (stereo not given)
Completion: -3.81

Prompt: Return reported cytotoxicity at 70.5 h; argument: Cc1nc(CN2CCc3nn(C(C)C)c(=O)cc3C2)oc1C
Completion: 4.51

Prompt: Return reported cytotoxicity at 70.5 h; argument: CCC[C@@H]1CN(Cc2ccc(N(C)C)nc2)C[C@H]1N(C)C
Completion: -9.01

Prompt: Return reported cytotoxicity at 70.5 h; argument: COc1ccc(Cl)cc1NC(=O)CCC1CCCN(Cc2ncon2)C1 (stereo not given)
Completion: -1.15

Prompt: Return reported cytotoxicity at 70.5 h; argument: Cc1ncc(CNC(=O)N(CCCO)C2CCc3ccccc32)s1 (stereo not given)
Completion: -5.3

----------
cytotoxicity at 70.5 h values, listed per item
assay: Human HepG2 cell viability assay in 384 well format; format: toxicity, cell-based; set-up: dose 125 nL, time 70.5 hour; concentration not given beside the values; conditions: HepG2 cells, read-out: Inhibition
Enter your answer as a number in %; do not include the unit.

CC(NC(=O)CN1CCCC1=O)c1ccc(Cl)s1 (stereo unspecified) | -9.58
COc1ccnc(N2CCN(C(=O)c3cccc(C#N)c3)CC2)n1 | -7.44

Prompt: Return reported cytotoxicity at 70.5 h; argument: Cc1ccc(CN2CC[C@H]3[C@@H]2CCC(=O)N3CCN2CCCC2)s1
Completion: 11.4

Prompt: Return reported cytotoxicity at 70.5 h; argument: COCCN(Cc1ccoc1)C(=O)CSc1ccc(F)cc1
Completion: -5.61

Prompt: Return reported cytotoxicity at 70.5 h; argument: CNS(=O)(=O)CCNCC1(O)CCCN(CCC2CCCCC2)C1=O (stereo unspecified)
Completion: -0.181

Prompt: Return reported cytotoxicity at 70.5 h; argument: Cc1nc(CSCCC(=O)NCC(=O)NC(C)C)cs1
Completion: 1.26

Prompt: Return reported cytotoxicity at 70.5 h; argument: CCN(CC)CCn1cc(NC2CCSCC2)cn1
Completion: -1.75

Prompt: Return reported cytotoxicity at 70.5 h; argument: Cc1noc(C)c1-c1cc(CC2CCN(C(=O)c3cc[nH]n3)C2)ncn1 (stereo unspecified)
Completion: -0.894

Prompt: Return reported cytotoxicity at 70.5 h; argument: CN(Cc1ccc2nonc2c1)C(=O)CCc1cc2n(n1)CCCNC2
Completion: -6.8

Prompt: Return reported cytotoxicity at 70.5 h; argument: CCCc1nnsc1C(=O)NCC(O)c1ccoc1 (stereo unspecified)
Completion: -11.2

Prompt: Return reported cytotoxicity at 70.5 h; argument: CCS(=O)(=O)CCNCc1cc(O)c2cc(C)cc(C)c2n1
Completion: 0.215

Prompt: Return reported cytotoxicity at 70.5 h; argument: COc1ccc(Br)cc1CCC(=O)N1CCCC1
Completion: -0.161
